Provenance of the data: patent US7737127B2

molecular target: A3 AR (Homo sapiens, UniProt P0DMS8); test: Radioligand competition binding (125I-ABA) to human A3 AR in HEK 293 cell membranes; conditions: selectivity ratio A3 over A2A
The class of a record is decided solely by its measured A3/A2A; consult label 0: < 10; label 1: ≥ 10 and < 30; label 2: ≥ 30

Any idea which band CCNC(=O)[C@H]1O[C@@H](n2cnc3c(N)nc(C#CCC4CCC(C(N)=O)CC4)nc32)C(O)C1O (stereo in doubt) is in? label 1

Any idea which band CCNC(=O)[C@H]1O[C@@H](n2cnc3c(N)nc(C#CCC4CCN(C(=O)OC)CC4)nc32)C(O)C1O (stereo in doubt) is in? label 2

Any idea which band CCNC(=O)C1CCC(CC#Cc2nc(N)c3ncn([C@@H]4O[C@H](C(=O)NCC)C(O)C4O)c3n2)CC1 (stereo in doubt) is in? label 1

Any idea which band CCNC(=O)[C@H]1O[C@@H](n2cnc3c(N)nc(C#CC4(O)CCCC(C)C4)nc32)C(O)C1O (stereo partly shown) is in? label 1

Any idea which band CCNC(=O)[C@H]1O[C@@H](n2cnc3c(N)nc(C#CC4(O)CCCCC4C(C)(C)C)nc32)C(O)C1O (stereo in doubt) is in? label 0

Any idea which band CCNC(=O)[C@H]1O[C@@H](n2cnc3c(N)nc(C#CC(O)(C4CCCCC4)C4CCCCC4)nc32)C(O)C1O (stereo in doubt) is in? label 0

Any idea which band CCNC(=O)[C@H]1O[C@@H](n2cnc3c(N)nc(C#CC4(O)CCCC(C)(C)C4)nc32)C(O)C1O (stereo in doubt) [JR-3201B] is in? label 1

Any idea which band CCNC(=O)[C@H]1O[C@@H](n2cnc3c(N)nc(C#CCC4CCC(C(=O)OC)CC4)nc32)C(O)C1O (stereo in doubt) [ATL-146e] is in? label 2

Any idea which band CCNC(=O)[C@H]1O[C@@H](n2cnc3c(N)nc(C#CC4(O)CCCCNC4=O)nc32)C(O)C1O (single isomer, unassigned) [JR-3243B] is in? label 0

Any idea which band CCNC(=O)C1OC(n2cnc3c(N)nc(C#CC4(O)CCCCC4)nc32)C(O)C1O (stereo not shown) is in? label 0

Any idea which band CCNC(=O)[C@H]1O[C@@H](n2cnc3c(N)nc(C#CCC4CCC(CO)CC4)nc32)C(O)C1O (stereo in doubt) is in? label 2

Any idea which band CCNC(=O)[C@H]1O[C@@H](n2cnc3c(N)nc(C#CC4(O)CCC(C(C)(C)C)CC4)nc32)C(O)C1O (stereo in doubt) is in? label 1

Any idea which band CCNC(=O)[C@H]1O[C@@H](n2cnc3c(N)nc(C#CCN4CCCCC4C(=O)OC)nc32)C(O)C1O (stereo partly shown) is in? label 0

====

Biological target: UniProt:P0DMS8
Sequence (P0DMS8 1-318): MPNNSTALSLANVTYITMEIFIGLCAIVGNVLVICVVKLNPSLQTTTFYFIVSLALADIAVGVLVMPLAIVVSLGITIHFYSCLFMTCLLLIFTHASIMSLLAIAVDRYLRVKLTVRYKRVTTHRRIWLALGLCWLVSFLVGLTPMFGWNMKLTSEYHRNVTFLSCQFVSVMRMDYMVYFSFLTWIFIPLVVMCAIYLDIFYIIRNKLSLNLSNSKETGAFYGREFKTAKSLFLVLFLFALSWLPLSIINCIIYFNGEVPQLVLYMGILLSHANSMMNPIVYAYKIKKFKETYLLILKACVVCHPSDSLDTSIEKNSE
Test: Radioligand competition binding (125I-ABA) to human A3 AR in HEK 293 cell membranes
Conditions: selectivity ratio A3 over A2A
Note to self: values exactly at 20 are criterion met. So A3/A2A at or above 20 is criterion met, below is criterion not met.

Please tell me: is the compound CCNC(=O)[C@H]1O[C@@H](n2cnc3c(N)nc(C#CCC4CCC(COC(C)=O)CC4)nc32)C(O)C1O (stereo in doubt) at or over 20 in terms of A3/A2A? criterion met

Please tell me: is the compound CCNC(=O)[C@H]1O[C@@H](n2cnc3c(N)nc(C#CCC4CCN(C(=O)OCC)CC4)nc32)C(O)C1O (stereo in doubt) at or over 20 in terms of A3/A2A? criterion met

Please tell me: is the compound CCNC(=O)[C@H]1O[C@@H](n2cnc3c(N)nc(C#CCN4CCN(C(=O)OC(C)(C)C)CC4)nc32)C(O)C1O (stereo in doubt) at or over 20 in terms of A3/A2A? criterion not met

Please tell me: is the compound CCNC(=O)[C@H]1O[C@@H](n2cnc3c(N)nc(C#CCC4CCC(C(C)O)CC4)nc32)C(O)C1O (stereo in doubt) at or over 20 in terms of A3/A2A? criterion not met

Please tell me: is the compound CCNC(=O)[C@H]1O[C@@H](n2cnc3c(N)nc(C#CCN4CCN(C(=O)OCC)CC4)nc32)C(O)C1O (stereo in doubt) at or over 20 in terms of A3/A2A? criterion met

Please tell me: is the compound CCNC(=O)[C@H]1O[C@@H](n2cnc3c(N)nc(C#CCC4CCN(C(=O)OC(C)C)CC4)nc32)C(O)C1O (stereo in doubt) at or over 20 in terms of A3/A2A? criterion met
